Data provenance: patent US20250368734A1

- MEASURED ON: T1, cynomolgus monkey GPRC5D (cynomolgus monkey)
- T1 construct: whole, on cells; HEK293T-cynoGPRC5D cells; also called cynoGPRC5D
- RUN DESCRIPTION: FACS, HEK293T-cynoGPRC5D cells
PROPERTY MEASURED: EC50 (nM)
Numbers only, in nM.

Worked examples follow.
ch20C4E1 (antibody, V domains shown) VH: EVRLVESGGALVRPGGSLKLSCAASGFTFSDYGMHWVRQAPEKGLEWIAFISSVSFTIYYADTVKGRFTISRDNAKNTLFLQMTSLRSEDTALYYCTRLGPHWYFDVWGTGTTVTVSS VL: DVVLTQTPLSLPVSLGDQASISCRSSQSLVYSNGNTYLHWFLQKPGQSPQLLIYKVSNRFSGVPDRFSGSGSGTDFTLKISRVEAEDLGVYFCSQSTPVPTFGGGTKLEIK ... 11.5
ch96C9E7 (antibody, V domains shown) VH: EVQLQQSGPELVKPGASVKMSCKASGYTFTYYILHWVKQKPGQGLEWIGYFNPYNDGNKFNERFRGKATLTSDKSSSTAYMELNSLTSEDSAVYFCARGGVRRYFDVWGAGTTVTVSS VL: DIQMTQSPSSLSASLGERVSLTCRASQDIGSNLNWLQQEPDGTIKRLISATFSLDSGVPKRFSGSRSGSDYSLTISSLESEDFVNYYCLQYASFPYTFGGGTKLEIK ... 8.25
ch12G12C2 (antibody, V domains shown) VH: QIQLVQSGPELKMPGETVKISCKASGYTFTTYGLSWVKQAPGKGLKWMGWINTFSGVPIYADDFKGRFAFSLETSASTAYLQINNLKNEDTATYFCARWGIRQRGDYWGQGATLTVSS VL: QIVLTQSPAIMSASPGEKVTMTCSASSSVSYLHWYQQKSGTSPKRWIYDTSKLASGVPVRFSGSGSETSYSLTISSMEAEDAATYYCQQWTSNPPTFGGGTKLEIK ... 5.94

Task: Field request: EC50 | item: ch98A3A8 (antibody, V domains shown) VH: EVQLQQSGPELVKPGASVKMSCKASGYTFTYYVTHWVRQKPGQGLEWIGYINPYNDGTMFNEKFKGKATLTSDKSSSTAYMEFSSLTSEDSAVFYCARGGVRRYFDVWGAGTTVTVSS VL: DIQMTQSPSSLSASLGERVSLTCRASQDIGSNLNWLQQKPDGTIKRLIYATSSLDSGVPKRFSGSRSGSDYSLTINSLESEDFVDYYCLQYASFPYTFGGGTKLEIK
Output: 9.78
